Where do these numbers come from? They come from patent US20120208204A1.

Tested on: SGK2
MEASUREMENT_PROTOCOL: Inhibition of kinase activity by SGK2 inhibitory compounds, single concentration
Type: biochemical
SETUP_CONDITIONS: 10 μM compound
MEASUREMENT_NAME: % Inhibition at 10 μM (%)

Oc1ccc(N=Cc2ccc[nH]2)cc1N=Cc1ccc[nH]1: 62
O=C(O)c1cc2c3c(c1)C1C=CCC1CN3CC1CC=CC21 (stereo not drawn): 73
Cc1ccc(NC(=O)Cn2cc(C(=O)c3ccccc3)c(=O)c3ccc(C)nc32)cc1: 62
N#Cc1c(N)nc(SCC(=O)Nc2ccc([N+](=O)[O-])c3ccccc23)c(C#N)c1-c1ccco1: 71
N#Cc1c(-c2ccco2)cc(-c2cccs2)nc1N: 80
O=c1c(O)cccc2ccc(O)c(O)c12: 87
Oc1c(Cl)cc(Cl)c2c1NCCC2: 67
Cc1cccc(NC(=O)CSc2ncnc3c2oc2ccccc23)c1C: 67
O=C(CSc1nnc(-c2ccco2)[nH]1)c1ccc(O)c(O)c1: 67

====

Test system: SGK2
MEASUREMENT_PROTOCOL: Inhibition of kinase activity by SGK2 inhibitory compounds, single concentration
Format: biochemical
SETUP_CONDITIONS: 10 μM compound
Source text: A library of compounds was screened for inhibitors of SGK2 and PAK3 activity by assaying phosphorylation of a generic peptide substrate either directly; or indirectly by inhibiting upstream kinase PDK1 from activating the enzyme in vitro. In both cases, the phosphorylated substrate was detected using a specific anti-phospho peptide antibody that is coupled with Eu^3+ Cryptate and XL665 conjugated with streptavidin. […]
MEASUREMENT_NAME: % Inhibition at 10 μM (%)

N#CC1=C(NC(=O)Cc2ccccc2)c2ccccc2CC12CCCCC2 [LDN-0047862]: 95
Oc1ccc(-c2nc(-c3ccc4sc5ccccc5c4c3)c(-c3ccccc3)[nH]2)cc1 [LDN-0044883]: 64
Oc1cc2c(cc1O)C1c3ccc(O)c(O)c3OCC1(O)C2 (stereo not drawn) [LDN-0096990]: 91
COc1ccc(-c2nc(-c3ccc(Sc4ccccc4)cc3)c(-c3ccccc3)[nH]2)cc1 [LDN-0044878]: 79
O=c1cc(-c2cc(O)c(O)c(O)c2)oc2cc(O)cc(O)c12 [LDN-0097731]: 87
O=C(Nc1cccc(-c2cscn2)c1)C1CCN(Cc2cccc(-c3ccco3)c2)CC1 [LDN-0117557]: 60
N#Cc1c(N)nc(SCc2ccccc2)c(C#N)c1-c1ccc(O)cc1 [LDN-0028618]: 87
CC(=O)Oc1ccc(C2Nc3c(C(=O)O)ccc([N+](=O)[O-])c3C3C=CCC32)cc1 (stereo not drawn) [LDN-0033447]: 65
CCc1cc(-c2n[nH]cc2-c2ccc(Br)cc2)c(O)cc1O [LDN-0106197]: 67

====

Tested on: SGK2
MEASUREMENT_PROTOCOL: Inhibition of kinase activity by SGK2 inhibitory compounds, single concentration
Assay type: biochemical
SETUP_CONDITIONS: 10 μM compound
MEASUREMENT_NAME: % Inhibition at 10 μM (%)

The following compounds have reported results that may help.
O=C(NCCCN1CCCCCC1)c1ccc(Cn2c(=S)[nH]c3ccc(Br)cc3c2=O)cc1: 67
Oc1ccccc1-c1cc(-c2ccco2)[nH]n1: 85
O=C(OC1Cc2c(O)cc(O)cc2OC1c1ccc(O)c(O)c1)c1cc(O)c(O)c(O)c1 (centres unmarked): 93

[A] CSc1ccc(-c2nc(-c3ccc(Sc4ccccc4)cc3)c(-c3ccccc3)[nH]2)cc1
[B] O=C1C=C2CC3(O)COc4c(ccc(O)c4O)C3=C2C=C1O (centres unmarked)
Decide: A or B , by lowest recorded % Inhibition at 10 μM. Give the chosen item's label as your response.
A
(A: 65%, B: 93%)

====

Tested on: SGK2
MEASUREMENT_PROTOCOL: Inhibition of kinase activity by SGK2 inhibitory compounds, single concentration
Assay type: biochemical
SETUP_CONDITIONS: 10 μM compound
MEASUREMENT_NAME: % Inhibition at 10 μM (%)

The following compounds have reported results that may help.
COc1cccc(C2Nc3cccc4cccc(c34)N2)c1OC [LDN-0045022]: 73
O=c1cc(C2Oc3cc(O)cc(O)c3CC2O)cc2c(C3Oc4cc(O)cc(O)c4CC3O)cc(O)c(O)c2c1O (stereo not shown) [LDN-0096771]: 89
Oc1cc(O)c2c(c1)O[C@@]1(c3ccc(O)c(O)c3)Oc3cc(O)c4c(c3[C@@H]2[C@H]1O)O[C@H](c1ccc(O)c(O)c1)[C@H](O)[C@H]4c1c(O)cc(O)c2c1O[C@H](c1ccc(O)c(O)c1)[C@H](O)C2 [LDN-0022358]: 93
Nc1ccc2c(c1)OC1(CCCC1)O2 [LDN-0073507]: 74

[1] Oc1ccc(C2Nc3cccc4cccc(c34)N2)c(O)c1 [LDN-0045038]
[2] CN1c2ccccc2Sc2cc(N)ccc21 [LDN-0065927]
Decide: 1 or 2 , by lowest recorded % Inhibition at 10 μM. Give the chosen item's label as your response.
2
(2: 52%, 1: 91%)

====

System: SGK2
MEASUREMENT_PROTOCOL: Inhibition of kinase activity by SGK2 inhibitory compounds, single concentration
Format: biochemical
SETUP_CONDITIONS: 10 μM compound
MEASUREMENT_NAME: % Inhibition at 10 μM (%)

Oc1cc(O)c2c(c1)OC(c1cc(O)c(O)c(O)c1)C(O)C2 (stereo not drawn): 68
CCOC(=O)C1C(=O)NC(SCC(=O)Nc2ccc(Br)cc2)=C(C#N)C1c1ccccc1OCC (stereo not drawn): 68
O=[N+]([O-])c1c(Cl)cc(O)c2c1C1C=CCC1C(c1ccccc1)N2 (stereo not drawn): 70

====

Tested on: SGK2
MEASUREMENT_PROTOCOL: Inhibition of kinase activity by SGK2 inhibitory compounds, single concentration
Format: biochemical
SETUP_CONDITIONS: 10 μM compound
Excerpt: A library of compounds was screened for inhibitors of SGK2 and PAK3 activity by assaying phosphorylation of a generic peptide substrate either directly; or indirectly by inhibiting upstream kinase PDK1 from activating the enzyme in vitro. In both cases, the phosphorylated substrate was detected using a specific anti-phospho peptide antibody that is coupled with Eu^3+ Cryptate and XL665 conjugated with streptavidin. […]
MEASUREMENT_NAME: % Inhibition at 10 μM (%)

The following compounds have reported results that may help.
Oc1cccc2ccc(Nc3ccccn3)nc12 [LDN-0088017]: 84
O=c1cc(-c2ccccc2)c2ccc(O)c(O)c2o1 [LDN-0063260]: 98
Nc1ccc2[nH]c(C=Cc3ccccc3)nc2c1 [LDN-0060426]: 71

[1] c1coc(C2=Nc3cccc4cccc(c34)N2)c1 [LDN-0088682]
[2] Nc1ccc2oc3ccc(N)cc3c(=O)c2c1 [LDN-0063356]
Decide: 1 or 2 , by lowest recorded % Inhibition at 10 μM. Give the chosen item's label as your response.
2
(2: 50%, 1: 80%)

====

Tested on: SGK2
MEASUREMENT_PROTOCOL: Inhibition of kinase activity by SGK2 inhibitory compounds, single concentration
Assay type: biochemical
SETUP_CONDITIONS: 10 μM compound
MEASUREMENT_NAME: % Inhibition at 10 μM (%)

Cc1cc(-c2ccco2)c(C#N)c(SCC(=O)c2ccc(O)c(O)c2)n1: 95
O=c1c(O)c(-c2ccc(O)c(O)c2)oc2cc(O)ccc12: 76
O=c1c(O)c(-c2ccc(O)c(O)c2)oc2cc(O)cc(O)c12: 89
CC(C)COC(=O)c1ccc2c(c1)C1C=CCC1C(C(=O)O)N2 (stereo not shown): 84
CC#CC1=C(CO)C(=O)C2OC2C1=O (stereo not shown): 71
O=C(O)C1Nc2c(O)cccc2C2C=CCC12 (stereo not shown): 95
O=C(O)C1C2CC=CC2c2cc(Br)cc3c2N1CC1CC=CC31 (stereo not shown): 67
O=c1c(O)cccc2cc(O)c(O)c(O)c12: 94
c1ccc(Sc2ccc(-c3nc(-c4ccccc4)[nH]c3-c3ccccc3)cc2)cc1: 68
Cc1ccc2c(=O)c(C(=O)c3ccccc3)cn(CC(=O)Nc3cccc(C)c3C)c2n1: 70
CCC(=O)N1CCc2cc(Br)cc(S(=O)(=O)Nc3ccc(Br)cc3)c21: 67
Oc1cc(O)c2c(c1)OC(O)(c1ccc(O)c(O)c1)C(O)C2 (stereo not shown): 84
Oc1cccc(C2Nc3cccc4cccc(c34)N2)c1: 90
CC(=O)Oc1cc(-c2coc3cc(OC(C)=O)c(OC(C)=O)c(OC(C)=O)c3c2=O)cc(OC(C)=O)c1OC(C)=O: 96
C=C1c2cccc(O)c2C(=O)C2=C(O)C3(O)C(=O)C(C(N)=O)=C(O)C(N(C)C)C3C(O)C12.Cl (stereo not shown): 70
O=C1CC(N2CCCCC2)C=C1Nc1ccc(F)cc1 (stereo not shown): 73
